Data provenance is ChEMBL document CHEMBL3585321.

- Test system: Escherichia coli
- experimental-protocol: Antibacterial activity against wild type Escherichia coli K-12 assessed as inhibition of bacterial growth
- Format: functional, organism-based
pIC50: −log10 of the molar value.
observable: pIC50

# input Consider the compound shown here: O=C(N[C@H](CO)[C@H](O)c1ccc([N+](=O)[O-])cc1)C(Cl)Cl [CHLORAMPHENICOL] What is its recorded pIC50?
# output 5.21

# input Consider the compound shown here: `NCCCN(CCCCN(Cc1ccccc1)Cc1ccccc1)C(=O)CCC(=O)N[C@H](CO)[C@H](O)c1ccc([N+](=O)[O-])cc1` What is its recorded pIC50?
# output 5.03

# input Consider the compound shown here: `O=C(CCC(=O)N[C@H](CO)[C@H](O)c1ccc([N+](=O)[O-])cc1)NCCCNCCCCN(Cc1ccccc1)Cc1ccccc1` What is its recorded pIC50?
# output 4.45

# input Consider the compound shown here: `NCCCCNC(=O)CCC(=O)N[C@H](CO)[C@H](O)c1ccc([N+](=O)[O-])cc1` What is its recorded pIC50?
# output < 3.70

# input Consider the compound shown here: `NCCCNCCCCNCCCNC(=O)CCC(=O)N[C@H](CO)[C@H](O)c1ccc([N+](=O)[O-])cc1` What is its recorded pIC50?
# output < 4.00

# input Consider the compound shown here: `NCCCCN(CCCN)C(=O)CCC(=O)N[C@H](CO)[C@H](O)c1ccc([N+](=O)[O-])cc1` What is its recorded pIC50?
# output < 3.82

* * *

- Test system: Staphylococcus aureus
- experimental-protocol: Antibacterial activity against wild type Staphylococcus aureus assessed as inhibition of bacterial growth
- Type: functional, organism-based
pIC50: −log10 of the molar value.
Label rule, in plain words: pIC50 of 5 and up is true (1), under 5 is false (0).

smiles-structure | assay-target | class-name
O=C(CCNC(=O)c1nc[nH]n1)N[C@H](CO)[C@H](O)c1ccc([N+](=O)[O-])cc1 | Staphylococcus aureus | false (0)
NCCCNCCCCNCCCNC(=O)CCC(=O)N[C@H](CO)[C@H](O)c1ccc([N+](=O)[O-])cc1 | Staphylococcus aureus | false (0)
NCCCN(CCCCN(Cc1ccccc1)Cc1ccccc1)C(=O)CCC(=O)N[C@H](CO)[C@H](O)c1ccc([N+](=O)[O-])cc1 | Staphylococcus aureus | true (1)

# input Textbook exercise: given the entry `O=C(N[C@H](CO)[C@H](O)c1ccc([N+](=O)[O-])cc1)c1nc[nH]n1` , state whether its pIC50 is greater than or equal to 5.
# output false (0)

# input Textbook exercise: given the entry `O=C(N[C@H](CO)[C@H](O)c1ccc([N+](=O)[O-])cc1)C(Cl)Cl` , state whether its pIC50 is greater than or equal to 5.
# output true (1)

* * *

- System: Staphylococcus aureus
- experimental-protocol: Antibacterial activity against methicillin-resistant Staphylococcus aureus GRE2372 assessed as inhibition of bacterial growth
- Assay type: functional, organism-based
The source made the active and inactive calls. The calls are words filed in the database; no cut-off is given here.
Hi there, use one of these labels in your reply, thanks! active, inactive

# input What was the test verdict on `COc1cccc(OC)c1C(=O)N[C@@H]1C(=O)N2[C@@H]1SC(C)(C)[C@@H]2C(=O)O` ?
# output inactive

# input What was the test verdict on `CCCCCCCCCC(=O)N[C@@H](Cc1c[nH]c2ccccc12)C(=O)N[C@H](CC(N)=O)C(=O)N[C@@H](CC(=O)O)C(=O)N[C@@H]1C(=O)NCC(=O)N[C@@H](CCCN)C(=O)N[C@@H](CC(=O)O)C(=O)N[C@H](C)C(=O)N[C@@H](CC(=O)O)C(=O)NCC(=O)N[C@H](CO)C(=O)N[C@@H]([C@H](C)CC(=O)O)C(=O)N[C@@H](CC(=O)c2ccccc2N)C(=O)O[C@@H]1C` ?
# output active

# input What was the test verdict on `CC(=O)N[C@@H]1[C@H](Oc2c3cc4cc2Oc2ccc(cc2Cl)[C@@H](O[C@@H]2O[C@@H](CO)[C@@H](O)[C@H](O)[C@@H]2NC(C)=O)[C@@H]2NC(=O)[C@H](NC(=O)[C@@H]4NC(=O)[C@H]4NC(=O)[C@@H](Cc5ccc(c(Cl)c5)O3)NC(=O)[C@H](N)c3ccc(O)c(c3)Oc3cc(O)cc4c3)c3ccc(O)c(c3)-c3c(O[C@H]4O[C@H](CO)[C@@H](O)[C@@H](O)[C@@H]4O)cc(O)cc3[C@@H](C(=O)O)NC2=O)O[C@@H](CO)[C@@H](O)[C@@H]1O` ?
# output active
